# testedTarget: Protein phosphatase 1D (Homo sapiens, UniProt O15297)
# Sequence (O15297 whole entry, the tested form may be a part): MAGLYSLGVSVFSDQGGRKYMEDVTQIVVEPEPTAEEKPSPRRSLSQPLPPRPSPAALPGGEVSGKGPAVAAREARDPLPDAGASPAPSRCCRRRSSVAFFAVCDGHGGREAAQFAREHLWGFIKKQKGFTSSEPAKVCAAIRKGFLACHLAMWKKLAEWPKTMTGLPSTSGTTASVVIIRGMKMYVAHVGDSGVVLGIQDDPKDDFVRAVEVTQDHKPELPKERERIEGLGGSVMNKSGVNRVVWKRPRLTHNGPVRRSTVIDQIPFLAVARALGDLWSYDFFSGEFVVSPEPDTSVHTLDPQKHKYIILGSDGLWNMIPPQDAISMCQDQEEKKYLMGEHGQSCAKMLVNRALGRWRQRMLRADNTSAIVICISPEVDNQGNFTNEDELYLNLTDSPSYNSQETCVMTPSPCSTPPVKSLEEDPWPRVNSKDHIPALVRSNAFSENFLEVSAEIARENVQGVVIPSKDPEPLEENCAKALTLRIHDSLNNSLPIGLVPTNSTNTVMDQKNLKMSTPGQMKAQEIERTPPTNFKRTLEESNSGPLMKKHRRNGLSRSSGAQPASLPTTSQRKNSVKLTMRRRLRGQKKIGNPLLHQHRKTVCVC
# procedureSummary: Inhibition of recombinant human Wip1 (1 to 420 residues) using human ATM phosphopeptide (AFEEG-pS-QSTTIGY) as substrate incubated for 7 mins by Bio-mol green assay
pIC50: −log10 of the molar value.
Quick rule for you: pIC50 at 4 or higher means class 1, lower means class 0.

[
  {
    "compound": "CCCCC(CCCC)CNc1ccc(C(=O)Nc2cccc(OP(=O)(O)O)c2)cc1CC1CCCCC1",
    "assignedCategory": "class 0"
  },
  {
    "compound": "O=C(Nc1cccc(OP(=O)(O)O)c1)c1ccc(NCc2ccc(-c3ccc(Cl)cc3)cc2)c(CC2CCCCC2)c1",
    "assignedCategory": "class 0"
  },
  {
    "compound": "O=C(Nc1cccc(Cl)c1)c1cccc(CNc2ccc(C(=O)Nc3cccc(OP(=O)(O)O)c3)cc2CCC2CCCCC2)c1",
    "assignedCategory": "class 1"
  },
  {
    "compound": "O=C(Nc1cccc(Cl)c1)c1cccc(CNc2ccc(C(=O)Nc3cccc(OP(=O)(O)O)c3)cc2C2CC3CCC2C3)c1 (stereo not drawn)",
    "assignedCategory": "class 1"
  },
  {
    "compound": "O=C(Nc1cccc(OP(=O)(O)O)c1)c1ccc(NCc2ccc(-c3cccc(Cl)c3)cc2)c(CC2CCCCC2)c1",
    "assignedCategory": "class 1"
  },
  {
    "compound": "O=C(Nc1ccc(OP(=O)(O)O)cc1)c1ccc(NCc2ccc(F)cc2)c(CC2CCCCC2)c1",
    "assignedCategory": "class 1"
  },
  {
    "compound": "O=C(Nc1cccc(OP(=O)(O)O)c1)c1ccc(NCc2cc3ccccc3o2)c(CC2CCCCC2)c1",
    "assignedCategory": "class 1"
  }
]
